All figures here come from patent US20230023559A1.

Consider the following compounds and their measured IC50 readings.
- ASSAYED SYSTEM: Kv1.3 potassium channel (Homo sapiens, UniProt P22001)
- Sequence (P22001 whole entry): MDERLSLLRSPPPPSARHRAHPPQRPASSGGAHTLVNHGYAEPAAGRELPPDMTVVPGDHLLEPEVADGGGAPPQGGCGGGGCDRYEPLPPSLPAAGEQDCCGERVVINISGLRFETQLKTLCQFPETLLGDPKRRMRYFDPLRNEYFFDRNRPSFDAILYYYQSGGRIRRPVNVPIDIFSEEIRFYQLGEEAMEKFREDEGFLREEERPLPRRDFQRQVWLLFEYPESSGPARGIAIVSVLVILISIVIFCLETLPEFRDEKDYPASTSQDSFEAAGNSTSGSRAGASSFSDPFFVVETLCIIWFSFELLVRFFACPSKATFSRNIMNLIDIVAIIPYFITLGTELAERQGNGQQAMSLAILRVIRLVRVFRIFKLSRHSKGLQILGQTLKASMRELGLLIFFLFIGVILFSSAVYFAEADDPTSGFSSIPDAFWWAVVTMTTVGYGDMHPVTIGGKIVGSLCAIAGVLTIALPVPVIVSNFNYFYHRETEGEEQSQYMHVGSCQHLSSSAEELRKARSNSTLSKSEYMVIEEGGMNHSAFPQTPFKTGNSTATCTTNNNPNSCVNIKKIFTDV
- EXPERIMENT DESCRIPTION: Kv1.3 potassium channel blocker activity, automated whole-cell patch clamp (Patchliner)
- COND: CHO-K1 cells stably expressing Kv1.3; whole cell current inhibition; read-out: Kv1.3_IC50
MEASURED PROPERTY: IC50

1. CN(C)CC(=O)N1CCC([C@@H](N)c2cc(Cl)c(Cl)cc2O)CC1; < 500 nM
2. N[C@@H](c1cc(Cl)c(Cl)cc1O)C1CCN(S(=O)(=O)[C@@H]2CCNC2)CC1 (single isomer, unassigned; isomer 1); < 500 nM
3. N[C@@H](c1cc(Cl)c(Cl)cc1O)C1CCN(C(=O)[C@H]2CNC(=O)C2)CC1 (single isomer, unassigned; isomer 2); < 500 nM
4. N[C@@H](c1cc(Cl)c(Cl)cc1O)C1CCN(S(=O)(=O)C2CNC2)CC1; < 500 nM
5. N[C@H](c1cc(Cl)c(Cl)cc1O)C1C2CCC1CN(C(=O)[C@H](O)CO)C2 (some centres unmarked); < 30000 nM
6. N[C@@H](c1cc(Cl)c(Cl)cc1O)C1CCN(C(=O)c2cc(=O)[nH]cn2)CC1; < 10000 nM
7. N[C@@H](c1cc(Cl)c(Cl)cc1O)C1CCN(C(=O)[C@H]2COCCO2)CC1; < 10000 nM
8. NC(c1cc(Cl)c(Cl)cc1O)C1CCN(S(=O)(=O)N2CCCC2)CC1 (centres unmarked); < 10000 nM
9. N[C@@H](c1cc(Cl)c(Cl)cc1O)C1CCN(C(=O)N2CC(O)C2)CC1; < 500 nM
10. N[C@@H](c1cc(Cl)c(Cl)cc1O)C1CCN(C(=O)[C@@H]2CCN2)CC1; < 500 nM
11. Cc1cc(O)c([C@H](N)C2CCN(C(=O)c3ccc(=O)n(C)c3)CC2)cc1Cl; < 500 nM
12. N#CC1(C(=O)N2CCC(C(N)c3cc(Cl)c(Cl)cc3O)CC2)CC1 (centres unmarked); < 500 nM
13. N[C@@H](c1cc(Cl)c(Cl)cc1O)C1CCN(C(=O)c2ccc(=O)[nH]n2)CC1; < 500 nM
14. CC(C)(O)CC(=O)N1CCC(C(N)c2cc(Cl)c(Cl)cc2O)CC1 (centres unmarked); < 10000 nM
